target or test system: T1, A1 domain of vWF (UniProt P04275 1261-1468, limits assumed)
T1 construct: domain: A1 domain; also called vWF A1 domain
protocol notes: SPR (BIAcore), vWF A1 domain on sensor-chip
recorded metric: log10 of Kd (log10 of the value in nM)
Scale: log10; quantity: Kd; unit before log: nM

Please report the recorded log10 of Kd for SEQ ID NO: 2 D105S (VHH) VHH: EVQLVESGGGLVQPGGSLRLSCAASGRTFSYNPMGWFRQAPGKGRELVAAISRTGGSTYYPDSVEGRFTISRDNAKRMVYLQMNSLRAEDTAVYYCAAAGVRAESGRVRTLPSEYTFWGQGTQVTVSS .
0.57

# get_value(readout='log10 of Kd', item= SEQ ID NO: 2 S63G (VHH) VHH: EVQLVESGGGLVQPGGSLRLSCAASGRTFSYNPMGWFRQAPGKGRELVAAISRTGGSTYYPDGVEGRFTISRDNAKRMVYLQMNSLRAEDTAVYYCAAAGVRAEDGRVRTLPSEYTFWGQGTQVTVSS )
0.08

What log10 of Kd value was documented for this binder, SEQ ID NO: 2 D105T (VHH) VHH: EVQLVESGGGLVQPGGSLRLSCAASGRTFSYNPMGWFRQAPGKGRELVAAISRTGGSTYYPDSVEGRFTISRDNAKRMVYLQMNSLRAEDTAVYYCAAAGVRAETGRVRTLPSEYTFWGQGTQVTVSS ?
0.86

I have this binder here, SEQ ID NO: 2 D105Q (VHH) VHH: EVQLVESGGGLVQPGGSLRLSCAASGRTFSYNPMGWFRQAPGKGRELVAAISRTGGSTYYPDSVEGRFTISRDNAKRMVYLQMNSLRAEDTAVYYCAAAGVRAEQGRVRTLPSEYTFWGQGTQVTVSS , and I need its recorded log10 of Kd.
0.04

log10 of Kd for SEQ ID NO: 2 D105E (VHH) VHH: EVQLVESGGGLVQPGGSLRLSCAASGRTFSYNPMGWFRQAPGKGRELVAAISRTGGSTYYPDSVEGRFTISRDNAKRMVYLQMNSLRAEDTAVYYCAAAGVRAEEGRVRTLPSEYTFWGQGTQVTVSS ?
0.64
